Consider the following compounds; for each one, report its growth.
# Tested on: NCI/ADR-RES ovarian
# ASSAY OVERVIEW: NCI-60 one-dose screen, 48 h (100 = growth as untreated, 0 = no growth, -100 = all killed)
# TEST PARAMETERS: 10 µM unless noted
About 83,000 compounds went through this panel and 20% of them were active in at least one assay; those are over-represented in the sample as a whole.
Write it as a number; the unit % goes unstated.

For N#CC(C#N)=C(C#N)C#N , write its growth.
110

For COc1ccc(N)cc1OC , write its growth.
107

For COc1cc(-c2ccc(N)c(OC)c2)ccc1N , write its growth.
105

For CC(Oc1ccc(-c2ccccc2)cc1)C(=O)O (configuration not stated) , write its growth.
104

For O=C(O)C(F)F , write its growth.
113

For Oc1ccccc1C=NCCN=Cc1ccccc1O.[Fe] , write its growth.
104

For COC12CC3C4=CCOC5CC(=O)N6c7ccccc7C1(CCN2C4)C6C53 (configuration not stated) , write its growth.
111

For O=C(O)c1cc([N+](=O)[O-])cc([N+](=O)[O-])c1 , write its growth.
106

For C/C=C(/C)C(=O)O[C@H]1CC[C@@]2(C)[C@@H]3CC[C@H]4[C@]5(O)C[C@H](O)[C@@]6(O)[C@@H](CN7C[C@@H](C)CC[C@H]7[C@@]6(C)O)[C@]5(O)C[C@@]42O[C@@]13O , write its growth.
111

For Cc1nc2ccccc2c(=O)n1-c1ccccc1F , write its growth.
112

For CC(C)CCC1C(=O)NC(=O)NC1=O , write its growth.
105

For CC1(C)N(Nc2ccccc2)C(=O)C2CCCN21 (configuration not stated) , write its growth.
85.9

====

Consider the following compounds; for each one, report its growth.
# System: DU-145 prostate
# ASSAY OVERVIEW: NCI-60 one-dose screen, 48 h (100 = growth as untreated, 0 = no growth, -100 = all killed)
# TEST PARAMETERS: 10 µM unless noted
The panel holds about 83,000 compounds, 20% with a hit somewhere; the sample as a whole holds those more often.
Write it as a number; the unit % goes unstated.

Tell me growth of O=C(CBr)OCCOC(=O)CBr when tested on DU-145 prostate.
84.2

Tell me growth of COC12CC3(C)C(C4=CC(=O)OC4)CCC3(O)C3CCC4=CC(=O)CCC4(CO1)C32 (stereo not given) when tested on DU-145 prostate.
117

Tell me growth of Nc1ccc(S(=O)(=O)F)cc1 when tested on DU-145 prostate.
107

Tell me growth of C[C@]12CC[C@H]3[C@@H](C[C@@H]4SC(Nc5ccccc5)=N[C@@]45C/C(=N/O)CC[C@]35C)[C@@H]1CCC2=O when tested on DU-145 prostate.
29.8

Tell me growth of CC/C(Cc1ccccc1)=C(\c1ccc(OCCN2CCCC2)cc1)c1ccc(OC(=O)NCc2ccccc2)cc1 when tested on DU-145 prostate.
61.1

Tell me growth of Cn1cc(C(=O)C[n+]2ccccc2)c2ccccc21 when tested on DU-145 prostate.
109

Tell me growth of CCOP(=O)(NC)OCC when tested on DU-145 prostate.
112

Tell me growth of CC[C@H](C)[C@H](NC(=O)CN(C)C)C(=O)N(C)[C@H](C[C@@H](OC(C)=O)c1nc(C(=O)NC23C4C5C2C2C3C4C52C(=O)OC)cs1)C(C)C (stereo not given in full) when tested on DU-145 prostate.
2.37

Tell me growth of Cc1nc2ccccc2c(=O)n1-c1ccccc1F when tested on DU-145 prostate.
109

Tell me growth of CO/N=C1\CC[C@]2(C)[C@H]3CC[C@]4(C)C(=O)CC[C@H]4[C@@H]3C[C@@H]3SC(N)=N[C@@]32C1 when tested on DU-145 prostate.
87.9

====

# System: UO-31 renal
# ASSAY OVERVIEW: NCI-60 one-dose screen, 48 h
# TEST PARAMETERS: 10 µM unless noted
The panel holds about 83,000 compounds, 20% with a hit somewhere; the sample as a whole holds those more often. The source made the active and inactive calls. How the source made its calls: active means growth percent below 10; inactive means the rest.
Select the matching outcome among active, inactive

What classification did c1ccc(CCN2CCCCC2)nc1 end up with in this test?
inactive

What classification did COc1cc2c(cc1OC)[C@@H]1C(=O)c3ccc4c(c3O[C@@H]1CO2)C[C@H](C(C)C)O4 end up with in this test?
inactive

What classification did CC(=O)c1cccc(S(=O)(=O)F)c1 end up with in this test?
inactive

What classification did Oc1cc(N2CC2)c(O)cc1N1CC1 end up with in this test?
active

What classification did CCOC(=O)P(=O)(OCC)OCC end up with in this test?
inactive

What classification did Cn1cc(-c2csc(-c3cn(CCCCN4CCOCC4)c4ccc(F)cc34)n2)c2cccnc21 end up with in this test?
inactive

What classification did CCCC(C)SP(=S)(SC(C)CCC)SC(C)CCC (stereo unspecified) end up with in this test?
inactive

What classification did N#CC(NC(=O)CCl)=C(Cl)Cl end up with in this test?
active

What classification did CC1=C2[C@H]3OC(=O)[C@@H](C)[C@@H]3CC[C@@]2(C)C=CC1=O end up with in this test?
inactive

What classification did CCOC(=O)c1ccccc1C(=O)OCC end up with in this test?
inactive

What classification did C[C@]12CC[C@H]3[C@@H](C[C@@H]4SC(Nc5cccc(F)c5)=N[C@@]45CC(=O)CC[C@]35C)[C@@H]1CCC2=O end up with in this test?
active

What classification did C[C@]12CCc3nc(-c4ccc(O)c(O)c4)sc3C1=CC[C@@H]1[C@@H]2CC[C@]2(C)C(=O)CC[C@@H]12 end up with in this test?
inactive

What classification did COc1cc(C2C3=C(CCCC3=O)N(CCO)c3cc4c(cc32)CCC4)cc(OC)c1OC (stereo unspecified) end up with in this test?
inactive

What classification did Cc1nnc([S-])o1.[Au+].c1ccc([PH+](c2ccccc2)c2ccccc2)cc1 end up with in this test?
inactive

What classification did O=P1(N(CCCl)CCCl)NCCCO1 (stereo unspecified) end up with in this test?
inactive

What classification did O=NN(c1ccccc1)c1ccccc1 end up with in this test?
inactive

What classification did C[C@@H]1C/C=C\C(=O)O[C@H](/C=C/C#C/C=C/C(C)(C)[C@@H](O)c2cccc(O)c2Br)[C@@H](C)/C=C/[C@H](C)C[C@H](OC(N)=O)C1 end up with in this test?
active

What classification did O=C(O)c1cc([N+](=O)[O-])cc([N+](=O)[O-])c1 end up with in this test?
inactive

What classification did COc1cc2c(cc1OC)-c1c3c(cc4c1[C@@H](C2)N(C)CC4)OCO3 end up with in this test?
active

What classification did CC[C@H](C)[C@H](NC(=O)CN(C)C)C(=O)N(C)[C@H](C[C@@H](OC(C)=O)c1nc(C(=O)NC23CC(C(=O)OC)(C2)C3)cs1)C(C)C end up with in this test?
inactive

What classification did Cn1cc(C(=O)C[n+]2ccccc2)c2ccccc21 end up with in this test?
inactive

====

# System: SF-268 CNS
# ASSAY OVERVIEW: NCI-60 one-dose screen, 48 h (100 = growth as untreated, 0 = no growth, -100 = all killed)
# TEST PARAMETERS: 10 µM unless noted
About 83,000 compounds went through this panel and 20% of them were active in at least one assay; those are over-represented in the sample as a whole.
Consider the following molecules; for each one, report its growth.
Write it as a number; the unit % goes unstated.

For C[C@]12CCc3sc(Nc4ccc(F)cc4)nc3C1=CC[C@@H]1[C@@H]2CC[C@]2(C)C(=O)CC[C@@H]12 , write its growth.
69.3

For Cc1ccc(C(=O)O[C@H](C(=O)O)[C@H](OC(=O)c2ccc(C)cc2)C(=O)O)cc1 , write its growth.
105

For N#CCc1ccc(CC#N)cc1 , write its growth.
105

For CN(C)c1ccc(C=C2C(=O)NC(=O)NC2=O)cc1 , write its growth.
93.5

For COc1ccc2c(c1)c(-c1nc(-c3c[nH]c4ncccc34)cs1)cn2CCCCN1CCOCC1 , write its growth.
52.4

For C/C(=C\c1ccn(-c2ccc(N)cc2F)n1)[C@@H]1C[C@@H]2O[C@]2(C)CCC[C@H](C)[C@H](O)[C@@H](C)C(=O)C(C)(C)[C@@H](O)CC(=O)O1 , write its growth.
29.7

For O=Cc1cn(Cc2ccccc2)c2ccccc12 , write its growth.
104

For CC12CCC3C4CCC(=O)C=C4CCC3C1CC1CC(=O)OC12 (configuration not stated) , write its growth.
98

For CCCCS(=O)(=O)Cl , write its growth.
108

For Cn1cc(C(=O)C[n+]2ccccc2)c2ccccc21 , write its growth.
94.7

For CN1CCC2(CC1)C(C#N)C(=O)NC(=O)C2C#N (configuration not stated) , write its growth.
107

For CCCCOCCOP(=O)(OCCOCCCC)OCCOCCCC , write its growth.
98.5

For C[C@]12CCc3nc(-c4ccc(O)c(O)c4)sc3C1=CC[C@@H]1[C@@H]2CC[C@]2(C)C(=O)CC[C@@H]12 , write its growth.
81.5

For O=C1c2ccccc2C(=O)N1N1CC1c1ccccc1 (configuration not stated) , write its growth.
104

For N#CC(NC(=O)CCl)=C(Cl)Cl , write its growth.
28.9

For Cc1ccc(S(=O)(=O)n2cc([C@@]3(O)C[C@H](CSC#N)OC3=O)c3ccccc32)cc1 , write its growth.
72.4

For c1ccc2c(c1)O[As](O[As]1Oc3ccccc3O1)O2 , write its growth.
19.2

For CC[C@H](C)[C@H](NC(=O)[C@H]1CCCCN1C)C(=O)N(C)[C@H](C[C@@H](OC(C)=O)c1nc(C(=O)NC23C4C5C2C2C3C4C52C(=O)OC)cs1)C(C)C (some centres not stated) , write its growth.
24.9

For O=CC1(c2ccccc2)CCN(Cc2ccccc2)CC1 , write its growth.
99.6

For CCOC(=O)c1ccccc1C(=O)OCC , write its growth.
110

For N#CCC(=O)c1ccccc1 , write its growth.
94.1

For CC1=C2[C@H]3OC(=O)[C@@H](C)[C@@H]3CC[C@@]2(C)C=CC1=O , write its growth.
107
